- Tested on: CCRIS mutagenicity, Ames/micronucleus/aberration tests
- PROTOCOL DETAILS: CCRIS mutagenicity studies
- ASSAY SETUP: Test System: AMES SALMONELLA TYPHIMURIUM; Strain/Indicator: TA98; Metabolic Activation: RAT, LIVER, S-9, AROCLOR 1254; Method: STANDARD PLATE
Calls of active or inactive are those of the source. How the calls were made is not given here.
Entry note: the call must match one of yes (1) = active, no (0) = inactive

Worked examples follow.
MOLECULE: CCN(CC)c1ccc(N=Nc2ccc(N=Nc3c(S(=O)(=O)O)cc4ccc(N)cc4c3O)c(OCCO)c2)cc1
CLASS NAME: yes (1)
--
MOLECULE: Cc1ccc2ccc3ccccc3c2c1C
CLASS NAME: no (0)
--
MOLECULE: CC(Cc1ccc(O)c(O)c1)C(C)Cc1ccc(O)c(O)c1 (centres undefined)
CLASS NAME: no (0)

# input for lookup
Req: Which outcome did this test record for the molecule "CC(C)C[C@@H]1NC(=O)CNC1=O" ?
Resp: no (0)

====

- Test system: CCRIS mutagenicity, Ames/micronucleus/aberration tests
- PROTOCOL DETAILS: CCRIS mutagenicity studies
- ASSAY SETUP: Test System: AMES SALMONELLA TYPHIMURIUM; Strain/Indicator: TA100; Metabolic Activation: NONE; Method: STANDARD PLATE
The source made the active and inactive calls. No rule for the calls is given here.
Entry note: the call must match one of true (1) = active, false (0) = inactive

Worked examples follow.
COMPOUND: CN(C)CCCNc1c2ccccc2nc2cccc([N+](=O)[O-])c12
CLASS NAME: true (1)
--
COMPOUND: C=C(C)[C@H]1CC=C(C)CC1
CLASS NAME: false (0)
--
COMPOUND: CN(Cc1ccccc1)C(=O)CBr
CLASS NAME: false (0)
--
COMPOUND: N=c1c2ncn(C(c3ccccc3)c3ccccc3)c2ncn1O
CLASS NAME: false (0)
--
COMPOUND: Oc1ccc(O)cc1
CLASS NAME: false (0)

Req: Which outcome did this test record for the compound "O=Nc1ccc2c(c1)Cc1ccccc1-2" ?
Resp: true (1)

Req: Could you do the same for CC(Cc1ccc(O)c(O)c1)C(C)Cc1ccc(O)c(O)c1 (stereo not given) , please?
Resp: false (0)

Req: Could you do the same for O=NN1CCSC1[C@H](O)[C@@H](O)[C@@H](O)CO (stereo not given in full) , please?
Resp: false (0)

Req: Could you do the same for "FC(F)(F)c1ccccc1Cl" , please?
Resp: false (0)

Req: Could you do the same for c1cc2c3c(cccc3c1)C1NC21 (stereo not given) , please?
Resp: true (1)

Req: Could you do the same for C1OC1C1CO1 (stereo not given) , please?
Resp: true (1)

Req: Could you do the same for "CCCCOc1cc(Cl)ccc1C(=O)NOC(C)=O" , please?
Resp: true (1)

Req: Could you do the same for "COC(=O)COc1ccc(Cl)cc1Cl" , please?
Resp: false (0)

Req: Could you do the same for "C[N+]1(C)CCOCC1" , please?
Resp: false (0)

Req: Could you do the same for "CN(C)CCCn1cc[n+](C)c1/C=N/O" , please?
Resp: false (0)

Req: Could you do the same for "Cl/C=C\CCl" , please?
Resp: true (1)

Req: Could you do the same for "CC(=O)O[C@H]1[C@@]2(O)CC(C)(C)CC2=C(C=O)[C@@]2(C=O)C[C@@]12C" , please?
Resp: true (1)

Req: Could you do the same for "C#CCOCC[n+]1ccccc1/C=N/O" , please?
Resp: false (0)

Req: Could you do the same for "COc1ccc(C=O)cc1OC" , please?
Resp: false (0)

Req: Could you do the same for "CC=C(C)C(=O)O[C@H]1[C@H](OC(C)=O)[C@]2(CO)[C@H](O)C[C@]3(C)C(=CC[C@@H]4[C@@]5(C)CC[C@@H](O[C@@H]6O[C@H](C(=O)O)[C@@H](O[C@@H]7O[C@H](CO)[C@@H](O)[C@H](O)[C@H]7O)[C@H](O)[C@H]6O[C@@H]6O[C@H](CO)[C@@H](O)[C@H](O)[C@H]6O)[C@](C)(CO)[C@@H]5CC[C@]43C)[C@@H]2CC1(C)C" , please?
Resp: false (0)

====

- System: CCRIS mutagenicity, Ames/micronucleus/aberration tests
- PROTOCOL DETAILS: CCRIS mutagenicity studies
- ASSAY SETUP: Test System: AMES SALMONELLA TYPHIMURIUM; Strain/Indicator: TA98; Metabolic Activation: NONE; Method: STANDARD PLATE
Activity calls are given as the source filed them. How the calls were made is not given here.
Entry note: the call must match one of 1 (yes) for active, 0 (no) for inactive

COMPOUND: Cc1ccc(S(=O)(=O)NC(=O)Nc2ncc([N+](=O)[O-])s2)cc1
SYSTEM NAME: CCRIS mutagenicity, Ames/micronucleus/aberration tests
CLASS NAME: 0 (no)
--
COMPOUND: CCOC(=O)OC(=O)OCC
SYSTEM NAME: CCRIS mutagenicity, Ames/micronucleus/aberration tests
CLASS NAME: 0 (no)
--
COMPOUND: C1=Cc2c3ccc4ccccc4c3cc3cccc1c23
SYSTEM NAME: CCRIS mutagenicity, Ames/micronucleus/aberration tests
CLASS NAME: 0 (no)
--
COMPOUND: CC1CS(=O)(=O)CCN1/N=C/c1ccc([N+](=O)[O-])o1 (stereo not given)
SYSTEM NAME: CCRIS mutagenicity, Ames/micronucleus/aberration tests
CLASS NAME: 0 (no)
--
COMPOUND: Nc1ccc(/C=C\c2ccc([N+](=O)[O-])cc2)cc1
SYSTEM NAME: CCRIS mutagenicity, Ames/micronucleus/aberration tests
CLASS NAME: 1 (yes)

Req: Which outcome did this test record for the compound "CC(=O)N(OC(=O)c1ccccc1)c1ccc2c(c1)Cc1ccccc1-2" ?
Resp: 1 (yes)

Req: Could you do the same for "[N-]=[N+]=Nc1nc2ccccc2[nH]1" , please?
Resp: 1 (yes)

Req: Could you do the same for c1ccc2c(c1)-c1ccccc1C1NC21 (stereo not given) , please?
Resp: 1 (yes)

====

- Tested on: CCRIS mutagenicity, Ames/micronucleus/aberration tests
- PROTOCOL DETAILS: CCRIS mutagenicity studies
- ASSAY SETUP: Test System: AMES SALMONELLA TYPHIMURIUM; Strain/Indicator: TA98; Metabolic Activation: NONE; Method: PREINCUBATION
Active and inactive are the calls of the source. The rule behind the calls is not given here.
Entry note: the call must match one of active, inactive

Worked examples follow.
COMPOUND: Cc1ccc(C)c([N+](=O)[O-])c1
CLASS NAME: inactive
//
COMPOUND: O=C1c2ccccc2C(=O)c2c(O)ccc(O)c21
CLASS NAME: inactive
//
COMPOUND: CCC(C(C)O)[N+](=O)[O-] (centres undefined)
CLASS NAME: inactive
//
COMPOUND: CCOC(C)(C)C
CLASS NAME: inactive
//
COMPOUND: O=[N+]([O-])c1ccc2c(c1)C(O)c1ccccc1-2 (centres undefined)
CLASS NAME: active
//
COMPOUND: CC(=O)OCc1ccco1
CLASS NAME: inactive
//
COMPOUND: COC(=O)c1ccc(/C=N/n2nnc3c([nH]c4ccccc43)c2=O)cc1
CLASS NAME: active
//
COMPOUND: O=[N+]([O-])c1ccc(Nc2ccc(N=C=S)cc2)cc1
CLASS NAME: inactive

Req: Which outcome did this test record for the compound "CCc1cccc(CC)c1N" ?
Resp: inactive

Req: Could you do the same for "O=[N+]([O-])c1c(O)ccc2ccccc12" , please?
Resp: active

Req: Could you do the same for "CC(C)CCC[C@@H](C)[C@H]1CC[C@H]2[C@@H]3CC=C4C[C@@H](OC(=O)Cc5ccc(N(CCCl)CCCl)cc5)CC[C@]4(C)[C@H]3CC[C@]12C" , please?
Resp: inactive

Req: Could you do the same for "O=[N+]([O-])c1cccc2nc3ccccc3nc12" , please?
Resp: inactive

Req: Could you do the same for "N#CCCO" , please?
Resp: inactive

Req: Could you do the same for "O=C(ON=C1C=CC(=NOC(=O)c2ccccc2)C=C1)c1ccccc1" , please?
Resp: active

====

- System: CCRIS mutagenicity, Ames/micronucleus/aberration tests
- PROTOCOL DETAILS: CCRIS mutagenicity studies
- ASSAY SETUP: Test System: AMES SALMONELLA TYPHIMURIUM; Strain/Indicator: TA98; Metabolic Activation: NONE; Method: STANDARD PLATE
The source made the active and inactive calls. No rule for the calls is given here.
Entry note: the call must match one of yes (1) (active), no (0) (inactive)

Worked examples follow.
COMPOUND: O=P(O)(O)OCC(O)CO (configuration not stated)
CLASS NAME: no (0)
//
COMPOUND: COCCCN
CLASS NAME: no (0)
//
COMPOUND: COc1ccc(CN(CCN(C)C)c2ccccn2)cc1
CLASS NAME: no (0)

Req: Which outcome did this test record for the compound "Nc1ccc(N)c2c1C(=O)c1cccc([N+](=O)[O-])c1C2=O" ?
Resp: yes (1)

Req: Could you do the same for "CC(=O)Nc1cc(O)c2ccc3cccc4ccc1c2c34" , please?
Resp: yes (1)

Req: Could you do the same for "ClCc1ccccn1" , please?
Resp: no (0)
